All values here come from patent US20190055314A1.

# kon values compiled below
Biological target: T1, CD137-hisFc fusion protein (Sino Biological Cat 10041-H03H) (human, UniProt Q07011 24-186)
T1 construct: Bought; also called recombinant human CD137 (fused with human Fc and His tag); not shown: His tag and human Fc
Test: BLI Octet, Fab
Respond numerically; units are M⁻¹ s⁻¹ and should not be typed.

IN: Supply reported kon belonging to this binder: Fab 4134 (Fab, V domains shown, Fab from E. coli; also called VH6/VL6) VH: EVQLVESGGGLVQPGGSLRLSCAASGYSISSGHHWGWIRQAPGKGLEWVSGISGYGDTTYYADSVKGRFTISRDNSKNTLYLQLNSLRAEDTAVYYCARDPYSSGSGYFDYWGQGTLVTVSS VL: DIQLTQSPSSLSASVGDRVTITCRASQGISSALGWYQQKPGKAPKLLIYAASSLQSGVPSRFSGSGSGTDFTLTISSLQPEDFATYYCQQSYYTWTFGQGTKVEIKR
OUT: 59300

IN: Supply reported kon belonging to this binder: Fab 5303 (Fab, V domains shown, Fab from E. coli; also called VH14/VL14) VH: EVQLVESGGGLVQPGGSLRLSCAASGFSLSTSGVAVGWIRQAPGKGLEWLALIDWADDKYYSPSLKSRLTISRDNSKNTLYLQLNSLRAEDTAVYYCAREGSDAVLGDWFAYWGQGTLVTVSS VL: DIQLTQSPSSLSASVGDRVTITCRASQDISTFLAWYQQKPGKAPKLLIYDASSLESGVPSRFSGSGSGTDFTLTISSLQPEDFATYYCQQAYSIWTFGQGTKVEIKR
OUT: 995000
